tested-on: Aminopeptidase N (Plasmodium falciparum (isolate 3D7))
procedure-details: malaria alanyl aminopeptidase activity blockers – biochemical, fluorogenic H-Leu-NHMec substrate, 1536-well (AID 1445);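 also: plate controls were DMSO full reaction for no effect and no enzyme background for full effect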
condition-notes: recombinant M1AAP, H-Leu-NHMec fluorogenic kinetic assay; at 30 µM
Among all 220,000 compounds or so, about 910 (0.41%) were called active.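 The calls were made as follows: active = primary inhibition above the hit cutoff, then over 50% inhibition at one or more dose response concentrations (cut at about 23% in these data, passing the limit was not always enough); inconclusive = conflicting primary data, or primary hits not chosen for dose response; inactive = low primary inhibition, or under 50% at every dose.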 This is one part of a sample in which actives are shown more often than they occur. Results with a measured potency or affinity are listed apart.
Return exactly one item of active, inactive

Solved entries (count: 6):
COCCNc1nnc(SCC(=O)Nc2cc(-c3ccccc3)nn2-c2ccccc2)s1
inactive
O=C(Cn1cnc([N+](=O)[O-])n1)N/N=C/c1ccc(O)cc1O
inactive
CCC(C)(C)NC(=O)C(c1cccnc1)N(C(=O)c1csnn1)c1ccccc1 (centres undefined)
inactive
O=C(Cn1nnc(-c2ccccc2)n1)N/N=C/c1cccc([N+](=O)[O-])c1O
inactive
CC(=O)NC(C)CCc1ccccc1 (centres undefined)
inactive
COc1ccc(/C=N/NC(=O)C(Cc2c[nH]c3ccccc23)NC(=O)OCC(C)C)cc1[N+](=O)[O-] (centres undefined)
inactive

Exercise: What is the recorded call for this compound in the test? CC(=O)c1ccc(NC(=O)c2ccc3nc(-c4ccco4)c(-c4ccco4)nc3c2)cc1
Solution: inactive

Exercise: What is the recorded call for this compound in the test? COc1ccc(/C=C/C(=O)c2ccc(Cl)s2)cc1O
Solution: inactive

Exercise: What is the recorded call for this compound in the test? COc1ccccc1CNC(=O)C(Cc1c[nH]c2ccccc12)NC(=O)OCc1ccccc1 (centres undefined)
Solution: inactive

----------
Listing of entries alongside the reported inhibition.
tested-on: Aminopeptidase N (Plasmodium falciparum (isolate 3D7)) (UniProt O96935)
Sequence (O96935 whole entry, looked up): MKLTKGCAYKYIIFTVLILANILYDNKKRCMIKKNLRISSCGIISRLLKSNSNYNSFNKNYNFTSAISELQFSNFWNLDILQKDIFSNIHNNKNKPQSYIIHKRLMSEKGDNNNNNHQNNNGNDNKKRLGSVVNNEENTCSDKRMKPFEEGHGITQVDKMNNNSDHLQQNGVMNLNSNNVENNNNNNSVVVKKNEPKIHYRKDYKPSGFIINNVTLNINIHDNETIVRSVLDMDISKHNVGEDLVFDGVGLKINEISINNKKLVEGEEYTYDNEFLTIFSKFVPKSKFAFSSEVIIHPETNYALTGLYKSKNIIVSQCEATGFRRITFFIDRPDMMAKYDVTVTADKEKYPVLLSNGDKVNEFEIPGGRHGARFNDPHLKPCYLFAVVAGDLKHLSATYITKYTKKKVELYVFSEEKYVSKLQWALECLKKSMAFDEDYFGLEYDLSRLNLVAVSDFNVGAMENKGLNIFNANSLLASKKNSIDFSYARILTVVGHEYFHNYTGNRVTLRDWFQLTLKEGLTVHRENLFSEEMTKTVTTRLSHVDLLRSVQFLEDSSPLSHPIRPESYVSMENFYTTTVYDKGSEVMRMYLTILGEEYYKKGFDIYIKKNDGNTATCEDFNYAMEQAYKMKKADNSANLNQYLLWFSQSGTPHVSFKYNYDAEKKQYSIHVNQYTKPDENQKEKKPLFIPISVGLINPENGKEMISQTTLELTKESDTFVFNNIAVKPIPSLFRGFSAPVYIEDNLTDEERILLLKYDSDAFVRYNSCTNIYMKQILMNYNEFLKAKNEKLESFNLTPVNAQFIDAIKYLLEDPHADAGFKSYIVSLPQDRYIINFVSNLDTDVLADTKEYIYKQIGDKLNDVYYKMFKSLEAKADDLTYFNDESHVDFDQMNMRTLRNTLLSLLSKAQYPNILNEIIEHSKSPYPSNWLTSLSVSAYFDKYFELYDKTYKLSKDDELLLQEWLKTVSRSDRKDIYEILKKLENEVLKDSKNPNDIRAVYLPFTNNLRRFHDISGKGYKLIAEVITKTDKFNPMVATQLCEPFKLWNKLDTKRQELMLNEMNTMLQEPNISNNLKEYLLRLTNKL
procedure-details: malaria alanyl aminopeptidase activity blockers – biochemical, fluorogenic H-Leu-NHMec substrate, 1536-well (AID 1445);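 also: plate controls were DMSO full reaction for no effect and no enzyme background for full effect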
condition-notes: recombinant M1AAP, H-Leu-NHMec fluorogenic kinetic assay; at 30 µM, active compounds read high unless noted
The whole screen tested about 220,000 compounds, of which about 910 (0.41%) were called active. Only a selection was taken, and actives are over-represented in it overall. Measured potencies and affinities stand elsewhere.
# number only, unit % dropped from output

Before answering, review these 3 worked examples.
CC1=C(C#N)C(=O)NC(=O)/C1=C\c1ccc(-c2cc(C)c(C)cc2[N+](=O)[O-])o1
11.9
CC1=C(C#N)C(=O)NC(=O)/C1=C\c1ccc(-c2ccc(C)cc2[N+](=O)[O-])o1
20.8
O=c1c2ccccc2nc(-c2ccc(Cl)c(Cl)c2)n1O
0.17

Consider the record given below.
The value of inhibition measured for the molecule COC(=O)c1c(NC(NC(=O)c2ccccc2)(C(F)(F)F)C(F)(F)F)sc2c1CCN(C)C2 turned out to be 2.95

----------
tested-on: Aminopeptidase N (Plasmodium falciparum (isolate 3D7)) (UniProt O96935)
procedure-details: malaria alanyl aminopeptidase activity blockers – biochemical, fluorogenic H-Leu-NHMec substrate, 1536-well (AID 1445);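 also: plate controls were DMSO full reaction for no effect and no enzyme background for full effect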
condition-notes: recombinant M1AAP, H-Leu-NHMec fluorogenic kinetic assay; at 30 µM
The campaign covered roughly 220,000 compounds. About 910 (0.41%) were called active.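 Rule for the calls: active = primary inhibition above the hit cutoff, then over 50% inhibition at one or more dose response concentrations (cut at about 23% in these data, passing the limit was not always enough); inconclusive = conflicting primary data, or primary hits not chosen for dose response; inactive = low primary inhibition, or under 50% at every dose.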 The sample holds actives, similar compounds and a random draw of the others, so the mix is not that of the screen. Entries with a potency or affinity are not part of this list.
Return exactly one item of yes (1) for active, no (0) for inactive

Oc1ccccc1CNc1cnc2ccccc2c1
no (0)
COCCNC(=O)c1cc2c(=O)n3cccc(C)c3nc2n(Cc2ccncc2)c1=N
no (0)
Oc1ccc2ccccc2c1CNc1cnc2ccccc2c1
yes (1)
COc1ccc(-c2nn(-c3ccccc3)cc2CNCCN2CCOC2=O)c(F)c1
no (0)
Cc1ccc2c(c1)-c1c(cnn1CC(=O)NC(C)CCc1ccco1)CO2 (stereo not given)
yes (1)

Exercise: What is the recorded call for this compound in the test? COc1ccc(/C=C/C(=O)NC(=S)Nc2ccc(S(N)(=O)=O)cc2)cc1
Solution: no (0)

Exercise: What is the recorded call for this compound in the test? Cc1ccc(C(=O)NCC(=O)OCC(=O)NCCc2ccccc2)s1
Solution: no (0)

Exercise: What is the recorded call for this compound in the test? C=CCn1c(=N)c(C(=O)NCCCOC)cc2c(=O)n3ccccc3nc21
Solution: no (0)
